- System: MDA-N
- test.details: NCI tumour cell line growth inhibition, 48 h
result.type: TGI

Sample answers from the record:
compound	TGI
O=C(NCCCCl)c1c(O)c2ccccc2[nH]c1=O	> 100 µM
C=CCOn1c(C=C)nc2c(C)cccc21	11.4 µM
O=C(O)CCCc1nc2c(n1-c1ccccc1)C(=O)c1ccccc1C2=O	> 100 µM
N#CC1(C#N)C2C=CC(C3CCC=C32)C1(C#N)C#N (stereo not given)	> 10 µM

Incoming: So what TGI did COc1ccccc1OC/C(N=Cc1ccncc1)=N/NC(=O)c1ccncc1 get with MDA-N?
Outgoing: > 100 µM

---

- Tested on: HL-60(TB) leukemia
- test.details: NCI tumour cell line growth inhibition, 48 h
result.type: TGI (µM)
# unit: µM | format: bare number

Sample answers from the record:
molecule	unit.of.measure	TGI
Cc1cnc2[nH]c(-c3ccccc3)cc(=O)c2c1	µM	0.226
O=C(CCN1CCCCC1CO)Nc1ccc2c(c1)C(=O)c1ccc(NC(=O)CCN3CCCCC3CO)cc1C2=O (configuration not stated)	µM	29.8
COC(=O)Nc1nc2ccc(Sc3ccc(NC(=O)Nc4cc(C(F)(F)F)ccc4F)cc3)cc2[nH]1	µM	12.3
C=CC[PH+](c1ccccc1)c1ccccc1.C=CC[PH+](c1ccccc1)c1ccccc1.[Cl][Pt][Cl]	µM	14

Could you now consider this next molecule?
Incoming: TGI lookup needed for N#CC(=C=[N-])[n+]1ccc(Cl)cc1 , thanks.
Outgoing: 20.4

---

// values below are reported TGI
- System: TK-10 renal
- test.details: NCI tumour cell line growth inhibition, 48 h

Incoming: TGI lookup needed for COc1cc2c(cc1OC)C1Cc3ccccc3CN1CCC2 (stereo not drawn) , thanks.
Outgoing: > 100 µM

---

// values below are reported TGI
- Test system: SNB-75 CNS
- test.details: NCI tumour cell line growth inhibition, 48 h

Sample answers from the record:
compound	TGI
CCOP(=O)(OCC)C(F)(F)CC1CCCCC1	> 10 µM
CC(=O)c1nccc2c1c(C)nc1ccccc12	> 100 µM
c1csc(-c2ccc(-c3ccc(-c4cccs4)s3)s2)c1	> 100 µM

Incoming: TGI lookup needed for C=CC[PH+](c1ccccc1)c1ccccc1.C=CC[PH+](c1ccccc1)c1ccccc1.[Cl][Pt][Cl] , thanks.
Outgoing: 25.1 µM

Incoming: Then this compound: C=CC(C)(C)n1cc(C2=C(O)C(=O)C(c3cn(C(C)(C)C=C)c4ccccc34)=C(OC(C)=O)C2=O)c2ccccc21
Outgoing: 1.55 µM

Incoming: Then this compound: COc1ccc(-c2c(C(C)=O)c(C)n(C3OC(CO)C(O)C(O)C3O)c(=S)c2C#N)cc1 (stereo not drawn)
Outgoing: > 100 µM

Incoming: Then this compound: O=C(O)CCCc1nc2c(n1-c1ccccc1)C(=O)c1ccccc1C2=O
Outgoing: > 100 µM

Incoming: Then this compound: COc1ccc(C=O)cc1Oc1ccc(C[C@H]2c3c(cc(OC)c4c3Oc3cc5c(cc3O4)CCN(C)C5=O)CCN2C)cc1
Outgoing: 14 µM

---

- System: NCI-H460 lung
- test.details: NCI tumour cell line growth inhibition, 48 h
result.type: TGI

Sample answers from the record:
compound	result.type	obs.value
O=C(O)c1ccccc1-c1ccccc1C(=O)c1ccccc1	TGI	> 100 µM
C/C(=N\NC(=S)N1CCC(C2CCN(C(=S)N/N=C(\C)c3ccccn3)CC2)CC1)c1ccccn1	TGI	> 100 µM
C[C@H](NC(=O)CCC(F)(F)F)C(=O)N[C@@H]1C(=O)N(CCO)c2ncccc2-c2ccccc21	TGI	> 100 µM

Could you now consider this next compound?
Incoming: TGI lookup needed for COC(=O)C1CCC(=NC2c3ccccc3-c3ccccc32)N1 (centres undefined) , thanks.
Outgoing: > 100 µM
